Tested on: Vero cells
assay details: Cytotoxicity assay (MTT), Vero cells
Format: cell-based, African Green Monkey
condition context: Chlorocebus sabaeus, 72 h, mean ± SD
What IC50 was measured for each of the following?

| molecule | IC50 |
| --- | --- |
| CCOC(=O)C1=C(C)NC2=C(C(=O)CC(C)(C)C2)C1c1cccc(F)c1 (stereo not shown) | > 58.2 µM |
| CCOC(=O)C1=C(C)NC(C)=C(C(=O)OCC)C1c1ccc(Br)cc1 | 35 µM |
| CCOC(=O)C1=C(C)NC2=C(C(=O)CC(C)(C)C2)C1c1ccc(N(C)C)cc1 (stereo not shown) | 49.4 µM |

Lab note: next molecule to report on.
Reported IC50 (Vero cells) for entry CCOC(=O)C1=C(C)NC2=C(C(=O)CC(C)(C)C2)C1c1ccc(O)c(OC)c1 (stereo not shown) is 45.1 µM

* * *

Test system: Vero cells
assay details: Cytotoxicity assay (MTT), Vero cells
Assay type: cell-based, African Green Monkey
condition context: Chlorocebus sabaeus, 72 h, mean ± SD
Procedure: The MTT colorimetric assay was conducted to assess the cytotoxicity of the compounds according to a method described previously. Briefly, Vero cells or macrophages were cultured in 96-well plates (5 × 10^3 cells/well/200 μL) in RPMI 1640 medium with 10% FBS at 37 °C and under 5% CO2 for 24 h. Thereafter, PBS was used to wash the cells. […] Next, 150 μL of DMSO was added, and a microplate absorbance spectrophotometer was applied for colorimetric analysis (λ = 540 nm). […]
readout label: pIC50
One number for each entry, as −log10 of the molar value.

Please review the following examples before continuing.
| molecule | readout number |
| --- | --- |
| CCOC(=O)C1=C(C)NC2=C(C(=O)CC(C)(C)C2)C1c1cccc([N+](=O)[O-])c1 (centres unmarked) [Compound 10] | 4.97 |
| CCOC(=O)C1=C(C)NC2=C(C(=O)CC(C)(C)C2)C1c1c(OC)cc(OC)cc1OC (centres unmarked) [Compound 14] | 4.64 |

Below are some molecules; for each one, tell me its pIC50.
1. CCOC(=O)C1=C(C)NC2=C(C(=O)CC(C)(C)C2)C1c1cccs1 (centres unmarked) [Compound 16]
2. CCOC(=O)C1=C(C)NC2=C(C(=O)CC(C)(C)C2)C1c1ccccc1[N+](=O)[O-] (racemic) [Compound 9]
3. CCOC(=O)C1=C(C)NC(C)=C(C(=O)OCC)C1c1ccc(O)c(OC)c1 [Compound 23]
4. CCOC(=O)C1=C(C)NC(C)=C(C(=O)OCC)C1c1ccc(OC)cc1 [Compound 18]
5. CCOC(=O)C1=C(C)NC2=C(C(=O)CC(C)(C)C2)C1c1ccc2c(c1)OCO2 (centres unmarked) [Compound 12]

Reply text:
[4.90, 5.35, 4.66, 4.34, 4.83]

Record CCOC(=O)C1=C(C)NC(C)=C(C(=O)OCC)C1c1ccc(OCc2ccccc2)cc1 [Compound 19] . Reported pIC50: 4.47

* * *

Tested on: L. major promastigotes
assay details: Activity against L. major promastigotes (MTT, 72 h)
Format: cell-based, Leishmania major
condition context: mean ± SD, read-out: EC50 L. major prom
readout label: pEC50
Answers are plain numbers, as −log10 of the molar value.

Please review the following examples before continuing.
| compound | readout number |
| --- | --- |
| CCOC(=O)C1=C(C)NC(C)=C(C(=O)OCC)C1c1cccc([N+](=O)[O-])c1 | 4.33 |
| CCOC(=O)C1=C(C)NC2=C(C(=O)CC(C)(C)C2)C1c1ccco1 (stereo not shown) | 4.40 |
| CCOC(=O)C1=C(C)NC(C)=C(C(=O)OCC)C1c1cc(OC)c(OC)c(OC)c1 | 4.37 |

Record CCOC(=O)C1=C(C)NC2=C(C(=O)CC(C)(C)C2)C1c1ccc2c(c1)OCO2 (stereo not shown) . Reported pEC50: 4.32
